Value source: patent US20100143349A1

Tgt: T1, HU-RAGE-SA (human, UniProt Q15109 23-342)
T1 construct: extracellular domain; Directly immobilized on a CM5 chip (~100 RU); also called hRAGE-SA; soluble human streptavidin-tagged RAGE; not shown: streptavidin tag (SA)
Method summary: BIAcore, 10 nM scFv-Fc over directly immobilized HU-RAGE-SA, 1:1 fit
Reported metric: koff (s⁻¹)
Write down the numeric answer in s⁻¹ and omit the unit.

Item: 6B6 scFv-Fc fusion (Fc fusion, Substitutions derived from the printed HCDR3; not shown: wild-type human IgG Fc (hinge and constant domains)) DIQMTQSPSSLSASVGDRVTITCRASQDVGIYVNWFQQKPGKAPRRLIYRATNLADGVPSRFSGSRSGTDFTLTISSLQPEDFATYYCLEFDEHPLTFGGGTKVEIKDGGGSGGGGSGGGGSSEVQLVESGGGLVQPGGSLRLSCAASGFTFNNYWMTWVRQAPGKGLEWVASIDNSGDNTYYPDSVKDRFTISRDNAKNSLYLQMNSLRAEDTAVYYCARGGDIIISLDWWGQGTLVTVSS | koff: 0.00141
